Each entry below carries its reported IC50.
Biological target: glycine transporter-1 (GlyT-1) (Homo sapiens, UniProt P48067)
Construct: JAR cells (ATCC#HTB-144), which endogenously express GlyT-1; host or cells: JAR human choriocarcinoma cells
Sequence (P48067 whole entry): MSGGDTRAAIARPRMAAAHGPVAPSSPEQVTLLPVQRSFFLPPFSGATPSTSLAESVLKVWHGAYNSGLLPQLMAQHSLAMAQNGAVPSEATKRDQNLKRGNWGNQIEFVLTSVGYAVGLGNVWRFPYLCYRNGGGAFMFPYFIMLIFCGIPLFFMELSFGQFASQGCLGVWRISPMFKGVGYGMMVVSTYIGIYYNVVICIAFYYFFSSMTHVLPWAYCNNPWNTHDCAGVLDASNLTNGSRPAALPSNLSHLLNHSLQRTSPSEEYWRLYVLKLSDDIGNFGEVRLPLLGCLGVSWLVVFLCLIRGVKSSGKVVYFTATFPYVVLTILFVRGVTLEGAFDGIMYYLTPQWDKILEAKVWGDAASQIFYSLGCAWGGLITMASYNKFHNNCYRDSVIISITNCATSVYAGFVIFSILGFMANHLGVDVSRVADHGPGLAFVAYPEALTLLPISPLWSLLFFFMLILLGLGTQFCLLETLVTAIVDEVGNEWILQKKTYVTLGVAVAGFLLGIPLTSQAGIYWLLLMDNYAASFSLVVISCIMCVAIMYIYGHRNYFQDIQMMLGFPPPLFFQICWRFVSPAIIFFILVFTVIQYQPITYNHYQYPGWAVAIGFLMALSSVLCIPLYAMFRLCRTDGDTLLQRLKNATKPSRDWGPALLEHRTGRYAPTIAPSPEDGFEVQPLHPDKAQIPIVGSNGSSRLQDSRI
Experiment: [14C]glycine uptake assay in JAR cells endogenously expressing GlyT-1 (scintillation proximity)
Assay type: cell-based
Conditions: JAR cells, [14C]glycine 5 μM, 3 hour incubation; read-out: GlyT-1 IC50
Protocol: The inhibitory activity of compounds of the invention against the glycine transporter-1 (GlyT-1) can be determined by the following scintillation proximity assay. The potency of each compound was assessed in inhibiting the uptake of radiolabeled glycine ([^14C]glycine) using the human choriocarcinoma cell line, JAR cells (ATCC#HTB-144), which endogenously express GlyT-1. […]
Structures can show the parent of a compound that is named as a salt.
result_type: IC50 (nM)

# compound, assay_target, result_type, assay_value
measured = [
    ("CCCS(=O)(=O)N1CCN(C2(CNC(=O)c3ccc(F)cc3F)CCCCC2)CC1 [compound 39, Hydrochloride]", "glycine transporter-1 (GlyT-1) (Homo sapiens, UniProt P48067)", "IC50", 132),
    ("CCCS(=O)(=O)N1CCN(C2(CNC(=O)c3ccc(Br)cc3)CCCCC2)CC1 [compound 11, Hydrochloride]", "glycine transporter-1 (GlyT-1) (Homo sapiens, UniProt P48067)", "IC50", 222),
    ("CCCS(=O)(=O)N1CCN(C2(CNC(=O)c3c(Cl)cccc3OC(F)(F)F)CCC(F)(F)CC2)CC1 [compound 159, Hydrochloride]", "glycine transporter-1 (GlyT-1) (Homo sapiens, UniProt P48067)", "IC50", 29),
    ("Cn1cc(S(=O)(=O)N2CCN(C3(CNC(=O)c4c(F)cc(Cl)cc4F)CCC(F)(F)CC3)CC2)nn1 [compound 230, Hydrochloride]", "glycine transporter-1 (GlyT-1) (Homo sapiens, UniProt P48067)", "IC50", 3),
    ("Cn1cnc(S(=O)(=O)N2CCN(C3(CNC(=O)c4ccc(Cl)cc4Cl)CCC(F)(F)CC3)CC2)c1 [compound 178, Hydrochloride]", "glycine transporter-1 (GlyT-1) (Homo sapiens, UniProt P48067)", "IC50", 5),
    ("Cn1cc(S(=O)(=O)N2CCN(C3(CNC(=O)c4c(F)cccc4F)CCOCC3)CC2)nn1 [compound 128, Hydrochloride]", "glycine transporter-1 (GlyT-1) (Homo sapiens, UniProt P48067)", "IC50", 83),
    ("Cn1cnc(S(=O)(=O)N2CCN(C3(CNC(=O)c4ccccc4Cl)CCC(F)(F)CC3)CC2)c1 [compound 160, Hydrochloride]", "glycine transporter-1 (GlyT-1) (Homo sapiens, UniProt P48067)", "IC50", 9),
    ("CC(O)CS(=O)(=O)N1CCN(C2(CNC(=O)c3ccc(C(F)(F)F)cc3Cl)CCC(F)(F)CC2)CC1 (stereo not shown) [compound 252, Hydrochloride]", "glycine transporter-1 (GlyT-1) (Homo sapiens, UniProt P48067)", "IC50", 33),
    ("CCCS(=O)(=O)N1CCN(C2(CNC(=O)c3ccc(C(F)(F)F)cc3Cl)CCC(F)(F)CC2)C(C)C1 (stereo not shown) [compound 257, Hydrochloride]", "glycine transporter-1 (GlyT-1) (Homo sapiens, UniProt P48067)", "IC50", 18),
    ("CC(C)CS(=O)(=O)N1CCN(C2(CNC(=O)c3c(N)cccc3Cl)CCCCC2)CC1 [compound 92, Hydrochloride]", "glycine transporter-1 (GlyT-1) (Homo sapiens, UniProt P48067)", "IC50", 952),
    ("Cc1cc(Cl)ccc1C(=O)NCC1(N2CCN(S(=O)(=O)c3cn(C)cn3)CC2)CCC(F)(F)CC1 [compound 168, Hydrochloride]", "glycine transporter-1 (GlyT-1) (Homo sapiens, UniProt P48067)", "IC50", 15),
    ("Cc1ccccc1C(=O)NCC1(N2CCN(S(=O)(=O)c3cn(C)cn3)CC2)CCC(F)(F)CC1 [compound 179, Hydrochloride]", "glycine transporter-1 (GlyT-1) (Homo sapiens, UniProt P48067)", "IC50", 25),
    ("CCCS(=O)(=O)N1CCN(C2(CNC(=O)c3ccc(F)cc3C(F)(F)F)CCCCCC2)CC1 [compound 71, Hydrochloride]", "glycine transporter-1 (GlyT-1) (Homo sapiens, UniProt P48067)", "IC50", 22),
]
